System: CAKI-1 renal
Assay Comment: NCI tumour cell line growth inhibition, 48 h; in the data active = GI50 below about 0.43 µM; inactive = the rest
Respond with a class label; see active, inactive

Query block: Which outcome was assigned to [CH3][Sn]([CH3])([CH3])[O][N+](=O)[O-] in this test?
Result block: inactive

Query block: What do you get for C#Cc1cccc(NC(=O)c2ccc(NC(=O)CCl)cc2)c1 ?
Result block: inactive

Query block: What do you get for Cc1ccc(S(=O)(=O)Nc2ccc(-c3cc(-c4cccc(F)c4)c(C#N)c(N)n3)cc2)cc1 ?
Result block: inactive

Query block: What do you get for Cc1cc(=O)oc2cc(OC/C=C3\CCC(=O)O3)ccc12 ?
Result block: inactive

Query block: What do you get for COCCn1cc(-c2csc(-c3c[nH]c4ccc(Br)cc34)n2)c2cccnc21 ?
Result block: inactive

Query block: What do you get for CN(C)CCNC(=O)NC[C@H]1CC[C@@H]2[C@H](O1)c1cc(C(F)(F)F)ccc1N[C@H]2c1ccccc1 ?
Result block: inactive

Query block: What do you get for C1C[OH+]CC[OH+]CCNCC[OH+]CC[OH+]CCN1.Cl.[Cl-].[Pt+4] ?
Result block: inactive

Query block: What do you get for CCn1ccc(NS(=O)(=O)c2ccc(N)cc2)nc1=O ?
Result block: inactive

Query block: What do you get for COc1ccc(N(C)c2nc(Cl)nc3cnn(C)c23)cc1 ?
Result block: active

Query block: What do you get for CN1CCN(Cc2ccc(NC(=O)c3cncc(C#Cc4cnc(N)c5cnccc45)c3)cc2C(F)(F)F)CC1 ?
Result block: inactive

Query block: What do you get for C[C@@H](Oc1cc(-n2cnc3ccc(OC[C@@H](O)CO)cc32)sc1C(N)=O)c1ccccc1Cl ?
Result block: inactive

Query block: What do you get for COc1ccc(OC)c(/C=C/c2nc(SCc3ccccc3)n(-c3ccc(Cl)cc3)n2)c1 ?
Result block: inactive

Query block: What do you get for Cc1ccc(S(=O)(=O)N2CCc3ccc(O)c4c3C2Cc2ccc3c(c2-4)OCO3)cc1 (stereo unspecified) ?
Result block: inactive

Query block: What do you get for COc1cccc(Nc2nccc(-c3cnn4ncccc34)n2)c1 ?
Result block: active

Query block: What do you get for CCCN1CCC(c2ccc(Nc3nc(Nc4cc(F)ccc4C(N)=O)c4cc[nH]c4n3)c(OC)c2)CC1 ?
Result block: inactive

Query block: What do you get for N#CC1C(=O)NC(c2ccccc2[N+](=O)[O-])c2sc3c(F)cccc3c21 (stereo unspecified) ?
Result block: active
